Target: T1, SNTG2, Q9NY99
T1 sequence (Q9NY99 68-166, limits assumed, looked up): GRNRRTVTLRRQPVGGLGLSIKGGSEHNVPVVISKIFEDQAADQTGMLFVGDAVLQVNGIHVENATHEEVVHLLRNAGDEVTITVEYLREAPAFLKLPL
Assay: holdup assay
Parameters: key: below the threshold = too weak to quantify, mostly under pKd 3.1 to 4
Settings: plain residues with an end cap or a label only (N-terminal biotin on a linker: ado-ado)
value_type: pKd

1. PSVYSRSQYV [CLDN8, P56748] ... below the threshold
2. NKSEPFLTWL [WWTR1, Q9GZV5] ... below the threshold
3. MQILSKPEFI [NPSR1, Q6W5P4] ... below the threshold
